- SYSTEM: Integrin alpha-V/beta-3 (Homo sapiens, UniProt P05106+P06756)
- Sequence (P05106 27-788 limits assumed): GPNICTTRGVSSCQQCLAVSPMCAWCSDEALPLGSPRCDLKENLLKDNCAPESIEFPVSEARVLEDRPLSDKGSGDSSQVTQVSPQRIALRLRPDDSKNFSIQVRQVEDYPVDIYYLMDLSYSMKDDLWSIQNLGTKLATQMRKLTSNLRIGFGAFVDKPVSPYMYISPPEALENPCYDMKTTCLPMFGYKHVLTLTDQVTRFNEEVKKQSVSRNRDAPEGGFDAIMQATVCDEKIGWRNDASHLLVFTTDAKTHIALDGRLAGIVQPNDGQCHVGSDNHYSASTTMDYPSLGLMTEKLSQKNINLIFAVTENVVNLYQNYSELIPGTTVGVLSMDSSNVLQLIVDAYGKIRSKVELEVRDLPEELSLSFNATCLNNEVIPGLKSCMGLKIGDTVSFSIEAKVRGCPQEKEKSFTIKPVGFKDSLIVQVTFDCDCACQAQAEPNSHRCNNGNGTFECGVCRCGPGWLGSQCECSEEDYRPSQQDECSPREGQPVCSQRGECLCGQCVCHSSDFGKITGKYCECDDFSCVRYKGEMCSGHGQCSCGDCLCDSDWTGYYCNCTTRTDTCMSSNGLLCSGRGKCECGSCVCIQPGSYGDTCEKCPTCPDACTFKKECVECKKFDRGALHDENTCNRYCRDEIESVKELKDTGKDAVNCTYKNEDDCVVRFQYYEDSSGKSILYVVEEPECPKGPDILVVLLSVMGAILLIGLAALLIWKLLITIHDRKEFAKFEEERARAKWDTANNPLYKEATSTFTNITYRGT
- Sequence (P06756 31-889 limits assumed): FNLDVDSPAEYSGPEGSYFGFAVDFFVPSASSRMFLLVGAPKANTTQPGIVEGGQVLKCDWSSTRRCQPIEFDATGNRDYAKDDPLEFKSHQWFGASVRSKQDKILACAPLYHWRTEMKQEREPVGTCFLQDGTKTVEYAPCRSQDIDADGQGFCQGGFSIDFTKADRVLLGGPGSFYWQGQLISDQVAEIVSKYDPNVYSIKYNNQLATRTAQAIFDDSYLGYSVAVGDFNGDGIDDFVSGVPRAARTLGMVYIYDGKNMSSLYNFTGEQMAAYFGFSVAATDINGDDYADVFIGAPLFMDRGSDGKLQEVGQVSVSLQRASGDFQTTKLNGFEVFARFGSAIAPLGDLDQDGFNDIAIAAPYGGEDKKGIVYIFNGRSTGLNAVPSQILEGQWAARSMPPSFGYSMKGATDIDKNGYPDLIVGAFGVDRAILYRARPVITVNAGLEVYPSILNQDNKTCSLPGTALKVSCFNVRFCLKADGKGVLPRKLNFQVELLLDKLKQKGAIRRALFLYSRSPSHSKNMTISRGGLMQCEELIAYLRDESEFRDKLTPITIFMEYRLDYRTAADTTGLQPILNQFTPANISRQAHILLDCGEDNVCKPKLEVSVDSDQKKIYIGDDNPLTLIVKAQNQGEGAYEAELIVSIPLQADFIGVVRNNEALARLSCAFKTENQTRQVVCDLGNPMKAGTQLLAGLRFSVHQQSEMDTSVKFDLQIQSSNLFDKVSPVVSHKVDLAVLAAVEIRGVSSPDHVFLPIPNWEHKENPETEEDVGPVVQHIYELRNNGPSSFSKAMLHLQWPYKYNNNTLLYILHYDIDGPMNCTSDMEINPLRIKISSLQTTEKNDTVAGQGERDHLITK
- Sequence (P06756 891-1048 limits assumed): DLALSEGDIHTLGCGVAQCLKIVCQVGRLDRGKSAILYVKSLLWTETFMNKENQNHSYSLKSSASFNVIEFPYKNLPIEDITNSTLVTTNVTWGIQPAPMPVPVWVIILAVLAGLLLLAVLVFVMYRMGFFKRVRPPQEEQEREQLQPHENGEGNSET
- METHOD_DESCRIPTION: Inhibition of alphaVbeta3 integrin-mediated human SK-MEL-24 cell adhesion to fibronectin incubated for 30 mins before plating measured after 1 hr
- Format: protein-complex assay
pIC50: −log10 of the molar value.
ASSAY_ENDPOINT: pIC50

# SUBSTANCE, ASSAY_ENDPOINT, REPORTED_RESULT
data = [
    ("H-GRGDTP-OH", "pIC50", 9.21),
    ("H-GRGDNP-OH", "pIC50", 6.64),
]

----------
- SYSTEM: Integrin alpha-5/beta-1 (Homo sapiens, UniProt P05556+P08648)
- Sequence (P05556 21-798 limits assumed): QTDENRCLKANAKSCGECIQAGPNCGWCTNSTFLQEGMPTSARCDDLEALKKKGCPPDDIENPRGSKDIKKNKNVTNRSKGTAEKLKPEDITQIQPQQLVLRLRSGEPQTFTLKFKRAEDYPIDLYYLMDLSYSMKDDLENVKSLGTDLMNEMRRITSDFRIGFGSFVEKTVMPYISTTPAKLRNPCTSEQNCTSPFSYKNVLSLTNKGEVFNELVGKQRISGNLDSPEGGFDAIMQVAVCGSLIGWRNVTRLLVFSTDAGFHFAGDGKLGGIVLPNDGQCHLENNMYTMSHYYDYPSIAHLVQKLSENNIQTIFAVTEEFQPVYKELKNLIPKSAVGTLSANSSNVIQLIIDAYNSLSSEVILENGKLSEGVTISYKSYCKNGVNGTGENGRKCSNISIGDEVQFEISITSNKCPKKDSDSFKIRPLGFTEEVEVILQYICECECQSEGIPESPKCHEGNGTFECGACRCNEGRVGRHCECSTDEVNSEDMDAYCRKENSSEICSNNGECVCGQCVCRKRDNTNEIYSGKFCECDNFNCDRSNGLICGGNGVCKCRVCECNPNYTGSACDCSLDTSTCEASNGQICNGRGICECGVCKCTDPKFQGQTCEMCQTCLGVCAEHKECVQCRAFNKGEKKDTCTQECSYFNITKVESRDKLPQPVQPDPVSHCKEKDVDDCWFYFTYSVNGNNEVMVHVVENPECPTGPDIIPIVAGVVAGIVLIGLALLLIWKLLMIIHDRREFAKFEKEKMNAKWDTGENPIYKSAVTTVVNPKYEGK
- Sequence (P08648 42-894 limits assumed): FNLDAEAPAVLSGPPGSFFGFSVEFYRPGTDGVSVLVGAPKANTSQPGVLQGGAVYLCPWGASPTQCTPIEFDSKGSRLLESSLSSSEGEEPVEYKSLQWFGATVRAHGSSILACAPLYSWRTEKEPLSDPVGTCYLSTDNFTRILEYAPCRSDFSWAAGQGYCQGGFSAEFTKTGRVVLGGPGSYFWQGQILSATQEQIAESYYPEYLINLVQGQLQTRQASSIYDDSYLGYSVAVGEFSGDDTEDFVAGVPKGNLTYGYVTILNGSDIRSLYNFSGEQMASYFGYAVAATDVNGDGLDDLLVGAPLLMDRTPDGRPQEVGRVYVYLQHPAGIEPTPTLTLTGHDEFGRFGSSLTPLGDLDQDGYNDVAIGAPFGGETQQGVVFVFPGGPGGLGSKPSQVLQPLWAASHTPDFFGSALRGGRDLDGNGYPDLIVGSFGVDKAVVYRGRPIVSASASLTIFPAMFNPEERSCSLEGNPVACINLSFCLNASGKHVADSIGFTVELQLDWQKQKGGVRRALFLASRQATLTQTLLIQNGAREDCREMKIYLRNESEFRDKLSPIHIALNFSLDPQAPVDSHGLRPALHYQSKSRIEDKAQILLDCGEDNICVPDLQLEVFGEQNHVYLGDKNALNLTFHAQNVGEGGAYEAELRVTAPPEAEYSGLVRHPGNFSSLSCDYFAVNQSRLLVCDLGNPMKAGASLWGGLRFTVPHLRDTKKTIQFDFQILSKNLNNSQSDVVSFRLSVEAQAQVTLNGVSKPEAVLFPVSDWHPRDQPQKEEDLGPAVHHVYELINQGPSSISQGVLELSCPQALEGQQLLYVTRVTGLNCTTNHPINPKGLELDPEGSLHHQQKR
- Sequence (P08648 895-1049 limits assumed): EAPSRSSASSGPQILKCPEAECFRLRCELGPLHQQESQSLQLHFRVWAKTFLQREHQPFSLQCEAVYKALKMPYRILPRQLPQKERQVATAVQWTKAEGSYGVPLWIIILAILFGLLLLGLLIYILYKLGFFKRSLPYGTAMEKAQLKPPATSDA
- METHOD_DESCRIPTION: Inhibition of alpha5beta1 integrin-mediated human K562 cell adhesion to fibronectin incubated for 30 mins before plating measured after 1 hr
pIC50: −log10 of the molar value.

# COMPOUND, RELATION, pIC50
measured = [
    ("C/C=C1\\C(=O)N(CC(=O)O)C(=O)N(Cc2ccc(NC(=O)CN)cc2)C1C(C)C (centres undefined)", "<", 4.00),
    ("CC1=C(C(=O)NCc2ccc(N)cc2)C(C(C)C)N(C(=O)CC(=O)O)O1 (centres undefined)", "=", 5.98),
    ("C/C=C(\\C(=O)NCC(=O)O)C(NCc1ccc(NC(=O)CN)cc1)C(C)C (centres undefined)", "=", 6.77),
    ("C/C=C(\\C(=O)O)C(NCc1ccc(N)cc1)C(C)C (centres undefined)", "=", 5.01),
    ("C/C=C(\\C(=O)NCC(=O)O)C(NCc1ccc(N)cc1)C(C)C (centres undefined)", "=", 6.66),
    ("CCCN(C(=O)CC(=O)O)C1=C(C)CC(c2ccccc2)N([C@@H](C)c2ccc(N)cc2)C1=O (some centres undefined)", "=", 7.24),
    ("C/C=C(\\C(=O)NCC(=O)O)C(C)NCc1ccc(N)cc1 (centres undefined)", "=", 5.01),
    ("C/C=C(\\C(=O)O)C(NCc1ccc(N)cc1)C1CCCCC1 (centres undefined)", "=", 5.68),
    ("C/C=C(\\C(=O)O)C(C)NCc1ccc(N)cc1 (centres undefined)", "=", 7.72),
]

----------
- SYSTEM: Integrin alpha-V/beta-3 (Homo sapiens, UniProt P05106+P06756)
- METHOD_DESCRIPTION: Inhibition of alphaVbeta3 integrin-mediated human SK-MEL-24 cell adhesion to fibronectin incubated for 30 mins before plating measured after 1 hr
ASSAY_ENDPOINT: log10 IC50 (log10 of the value in nM)

# COMPOUND, REPORTED_RESULT
rows = [
    ("CC1=C(C(=O)NCc2ccc(N)cc2)C(C(C)C)N(C(=O)CC(=O)O)O1 (centres undefined)", 3.94),
    ("C/C=C(\\C(=O)O)C(NCc1ccc(N)cc1)C(C)C (centres undefined)", 3.17),
    ("C/C=C(\\C(=O)NCC(=O)O)C(NCc1ccc(N)cc1)C(C)C (centres undefined)", 3.30),
    ("C/C=C(\\C(=O)NCC(=O)O)C(C)NCc1ccc(N)cc1 (centres undefined)", 2.08),
    ("CCCN(C(=O)CC(=O)O)C1=C(C)CC(c2ccccc2)N([C@@H](C)c2ccc(N)cc2)C1=O (some centres undefined)", 1.85),
    ("C/C=C(\\C(=O)O)C(NCc1ccc(N)cc1)C1CCCCC1 (centres undefined)", 2.92),
    ("C/C=C(\\C(=O)NCC(=O)O)C(NCc1ccc(NC(=O)CN)cc1)C(C)C (centres undefined)", 2.43),
]
